Recorded values, source the OPERA property sets (Mansouri et al. 2018).

Each record is given Yes if its reported logP is strictly below 2. Records at or above 2 are given No.

Example entries begin here.
>>> category_label("CC(=NNC(=O)c1cccc(Br)c1)c1cnccn1")
"No"
>>> category_label("CSc1cnc(C2=NC(C)(C(C)C)C(=O)N2)c(C(=O)O)c1 (stereo not given)")
"Yes"
>>> category_label("Cc1cc(C(=O)O)ccc1[N+](=O)[O-]")
"No"
>>> category_label("CON=C(C(=O)NC1C(=O)N2C(C(C)OC(C)=O)=CCSC12)c1csc(N)n1 (stereo not given)")
"Yes"
>>> category_label("Cc1cccc2nc(N)nc(N)c12")
"Yes"

[ask] Below 2 on logP? Entry "O=c1cc(-c2ccccc2)[nH]n1-c1ccc(Cl)cc1"
[reply] No

[ask] Below 2 on logP? Entry CCCC(=NOCC)C1=C(O)CC2(CCCC3CCCCC32)OC1=O (stereo not given)
[reply] No

[ask] Below 2 on logP? Entry COCCNc1ncnc2c1ncn2C1OC(CO)C(O)C1O (stereo not given)
[reply] Yes

[ask] Below 2 on logP? Entry CCON=C(CC)C1=C(O)CC(c2cccc(Oc3ccc(Cl)c(Cl)c3)c2)CC1=O (stereo not given)
[reply] No

[ask] Below 2 on logP? Entry "CCCCCNc1ncnc2nc[nH]c12"
[reply] No

[ask] Below 2 on logP? Entry "COC(=O)c1cc(NC(=O)Cn2c(C)nc3ccccc3c2=O)cc(C(=O)OC)c1"
[reply] No
